- Test system: Septoria tritici
- method_description: In vivo preventive test on Septoria tritici (leaf spot on wheat)
- condition_info: 500 ppm; wheat plants sprayed 24 hours before contamination; grading 21 to 28 days after contamination vs control plants

# compound, tested_target, % of efficacy (protection) [%]
records = [
    ("C#Cc1cnc2c(Cl)cc(C3=NOC(C)(C(=O)NCc4cnc(C)cn4)C3)cc2c1 (stereo not shown)", "Septoria tritici", 100),
    ("CCOCCCNC(=O)C1(C)CC(c2ccc3ncc(I)cc3c2)=NO1 (racemic)", "Septoria tritici", 100),
    ("CCC(COC)NC(=O)C1(C)CC(c2ccc3ncc(Br)cc3c2)=NO1 (racemic)", "Septoria tritici", 100),
    ("C#Cc1cnc2c(Cl)cc(C3=NOC(C)(C(=O)NC(C)C)C3)cc2c1 (stereo not shown)", "Septoria tritici", 100),
    ("Cc1nc(C)c(C(C)NC(=O)C2(C)CC(c3ccc4ncc(Br)cc4c3)=NO2)s1 (stereo not shown)", "Septoria tritici", 100),
    ("CC(NC(=O)C1(C)CC(c2ccc3ncc(Br)cc3c2)=NO1)C1CCOC1 (stereo not shown)", "Septoria tritici", 100),
    ("Cc1cnc(CNC(=O)C2(C)CC(c3cc(Cl)c4ncc(Br)cc4c3)=NO2)cn1 (stereo not shown)", "Septoria tritici", 97),
    ("C#Cc1cnc2ccc(C3=NOC(C)(C(=O)NCc4cccc(OC(F)(F)F)c4)C3)cc2c1 (stereo not shown)", "Septoria tritici", 71),
    ("CCn1cc(CNC(=O)C2(CBr)CC(c3ccc4ncc(Br)cc4c3)=NO2)c(C)n1 (stereo not shown)", "Septoria tritici", 93),
    ("COC1(C(=O)NC2CCC2)CC(c2ccc3ncc(Br)cc3c2)=NO1 (stereo not shown)", "Septoria tritici", 100),
]

* * *

Listed here are molecules together with their documented log P.
- Assay type: physicochemical
- condition_info: method [a]: HPLC/LC-MS on reversed phase at pH 2.7, 0.1% formic acid in water / acetonitrile, linear gradient 10% to 95% acetonitrile
property: log P

# molecule, measurement
data = [
    ("CC1(CNC(=O)C2(C)CC(c3ccc4ncc(Br)cc4c3)=NO2)CCCO1 (stereo not shown)", "2.73^[a]"),
    ("CCn1ncc(CNC(=O)C2(C)CC(c3ccc4ncc(Br)cc4c3)=NO2)c1C (stereo not shown)", "2.37^[a]"),
    ("CC(C)NC(=O)C1(C)CC(c2ccc3ncc([S+](C)[O-])cc3c2)=NO1 (stereo not shown)", "1.49^[a]"),
    ("CCn1cc(CNC(=O)C2(C)CC(c3cc4cc(Br)cnc4c(OC)c3OC)=NO2)c(C)n1 (stereo not shown)", "2.42^[a]"),
    ("C#Cc1cnc2ccc(C3=NOC(C)(C(=O)NCc4ccccc4Cl)C3)cc2c1 (stereo not shown)", "3.23^[a]"),
    ("C#Cc1cnc2ccc(C3=NOC(C)(C(=O)NCc4ccc(Cl)cc4)C3)cc2c1 (stereo not shown)", "3.23^[a]"),
    ("CC1(C(=O)NCCc2ccc(Cl)cc2Cl)CC(c2ccc3ncc(Br)cc3c2)=NO1 (stereo not shown)", "4.16^[a]"),
    ("CC(C)NC(=O)C1(CBr)CC(c2ccc3ncc(Br)cc3c2)=NO1 (stereo not shown)", "3.04^[a]"),
    ("CC1(C(=O)NCc2cccnc2)CC(c2ccc3ncc(Br)cc3c2)=NO1 (stereo not shown)", "1.41^[a]"),
    ("Cn1cc(CNC(=O)C2(C)CC(c3ccc4ncc(Br)cc4c3)=NO2)cn1 (stereo not shown)", "2.07^[a]"),
]

* * *

Listed here are compounds together with their documented log P.
- Type: physicochemical
- condition_info: HPLC on reversed phase columns, method [a]: pH 2.7, 0.1% formic acid in water / acetonitrile, linear gradient 10% to 95% acetonitrile

# compound, log P
data = [
    ("C#Cc1cnc2ccc(C3=NOC(C)(C(=O)NC4CCN(C)CC4)C3)cc2c1 (stereo not shown)", "1.17[a]"),
    ("C=C(C)C1(C(=O)NC2CCC2)CC(c2ccc3ncc(Br)cc3c2)=NO1 (stereo not shown)", "3.61[a]"),
    ("C=Cc1cnc2ccc(C3=NOC(C)(C(=O)NC(C)C)C3)cc2c1 (stereo not shown)", "2.20[a]"),
    ("C#Cc1cnc2c(C)cc(C3=NOC(C)(C(=O)NCc4cn(CCC)nc4C)C3)cc2c1 (stereo not shown)", "2.90[a]"),
]

* * *

Listed here are compounds together with their documented % of efficacy (protection).
- Test system: Septoria tritici
- method_description: In vivo preventive test on Septoria tritici (leaf spot on wheat)
- condition_info: 500 ppm; wheat plants sprayed 24 hours before contamination; grading 21 to 28 days after contamination vs control plants

# compound, % of efficacy (protection) (%)
data = [
    ("CCCn1cc(CNC(=O)C2(C)CC(c3cc(C)c4ncc(Br)cc4c3)=NO2)c(C)n1 (stereo not shown) [compound 534]", 92),
    ("C#Cc1cnc2ccc(C3=NOC(OC)(C(=O)NC(C)(C)c4nc(C)cs4)C3)cc2c1 (stereo not shown) [compound 514]", 98),
    ("CC(C)ONC(=O)C1(C)CC(c2ccc3ncc(Br)cc3c2)=NO1 (racemic) [compound 388]", 100),
    ("C#Cc1cnc2ccc(C3=NOC(C)(C(=O)NC(C)c4ccsc4)C3)cc2c1 (stereo not shown) [compound 336]", 100),
    ("C#Cc1cnc2ccc(C3=NOC(C)(C(=O)NCc4ccc(Cl)nc4)C3)cc2c1 (stereo not shown) [compound 160]", 71),
    ("C#Cc1cnc2ccc(C3=NOC(C)(C(=O)NC(C)c4sc(C)nc4C)C3)cc2c1 (stereo not shown) [compound 333]", 98),
    ("CCCn1cc(CNC(=O)C2(C)CC(c3cc(Cl)c4ncc(Br)cc4c3)=NO2)c(C)n1 (racemic) [compound 549]", 97),
    ("CCn1cc(CNC(=O)C2(C)CC(c3ccc4ncc(C(F)(F)F)cc4c3)=NO2)c(C)n1 (racemic) [compound 383]", 100),
    ("C#Cc1cnc2ccc(C3=NOC(C=C)(C(=O)NCc4cn(CC)nc4C)C3)cc2c1 (stereo not shown) [compound 724]", 100),
    ("C#Cc1cnc2ccc(C3=NOC(C)(C(=O)NCc4cccnc4)C3)cc2c1 (stereo not shown) [compound 103]", 75),
    ("C#Cc1cc2cc(C3=NOC(C)(C(=O)NC(C)C)C3)ccc2nc1OC (stereo not shown) [compound 133]", 100),
    ("CC1(C(=O)NCc2ccccc2)CC(c2ccc3ncc(Br)cc3c2)=NO1 (stereo not shown) [compound 91]", 75),
    ("C=CC1(C(=O)NCC2COC(C)(C)O2)CC(c2ccc3ncc(I)cc3c2)=NO1 (stereo not shown) [compound 729]", 100),
    ("C#Cc1cnc2ccc(C3=NOC(C)(C(=O)NCc4ccccc4Cl)C3)cc2c1 (stereo not shown) [compound 168]", 71),
    ("C#Cc1cnc2ccc(C3=NOC(OC)(C(=O)NCc4cn(CC)nc4C)C3)cc2c1 (racemic) [compound 442]", 97),
    ("CC1(C(=O)NC(C)(C#N)C2CC2)CC(c2ccc3ncc(Br)cc3c2)=NO1 (stereo not shown) [compound 301]", 80),
    ("Cc1cc(C2=NOC(C)(C(=O)NCC3COC(C)(C)O3)C2)cc2cc(Br)cnc12 (stereo not shown) [compound 538]", 100),
    ("COC1(C(=O)NCC2COC(C)(C)O2)CC(c2ccc3ncc(Br)cc3c2)=NO1 (stereo not shown) [compound 496]", 100),
    ("CCn1cc(NC(=O)C2(C)CC(c3ccc4ncc(Br)cc4c3)=NO2)c(C)n1 (stereo not shown) [compound 489]", 93),
    ("CCOc1cnc2ccc(C3=NOC(C)(C(=O)NC(C)C)C3)cc2c1 (stereo not shown) [compound 78]", 97),
    ("C#Cc1cnc2ccc(C3=NOC(C)(C(=O)NCc4cn[nH]c4-c4cccs4)C3)cc2c1 (stereo not shown) [compound 192]", 71),
    ("C#Cc1cnc2ccc(C3=NOC(C)(C(=O)NC(CC)COC)C3)cc2c1 (stereo not shown) [compound 524]", 93),
    ("C#Cc1cnc2ccc(C3=NOC(C)(C(=O)NCc4cnn(Cc5ccccc5)c4)C3)cc2c1 (stereo not shown) [compound 185]", 86),
    ("COC1(C(=O)NC2CC2)CC(c2ccc3ncc(I)cc3c2)=NO1 (racemic) [compound 450]", 98),
    ("COC1(C(=O)NCc2cnc(C)cn2)CC(c2cc(C)c3ncc(Br)cc3c2)=NO1 (stereo not shown) [compound 596]", 100),
    ("C#Cc1cnc2ccc(C3=NOC(OC)(C(=O)N(OC)C(C)CC)C3)cc2c1 (stereo not shown) [compound 466]", 97),
    ("CON=CC(C)(C)NC(=O)C1(C)CC(c2ccc3ncc(Br)cc3c2)=NO1 (stereo not shown) [compound 298]", 100),
    ("C#Cc1cnc2ccc(C3=NOC(C)(C(=O)NC(c4cccc(Cl)c4)C(F)(F)F)C3)cc2c1 (stereo not shown) [compound 357]", 78),
]
